# protocol-description: Blood pharmacokinetics after a single intraperitoneal dose
# Type: in vivo, male CD1 mice
# condition-set: male, CD1, mouse, in vivo, 52 mg/kg, 52 mg/kg IP, 0.25 hr; read-out: Blood Concentration, Mean

| molecule | concentration at 0.25 hr |
| --- | --- |
| COc1ccc(Cn2ccc3ccc(C(=O)NO)cc32)cc1 [UPHH-123] | 5680 ng/mL |

====

# protocol-description: Plasma pharmacokinetics after a single intraperitoneal dose
# Type: in vivo, male CD1 mice
# condition-set: male, CD1, mouse, plasma, intraperitoneal, 10 mg/kg, 10 mg/kg IP, 8 hr; read-out: Plasma Concentration, Mean
observable: concentration at 8 hr

| molecule | val |
| --- | --- |
| COc1ccc(Cn2ccc3ccc(C(=O)NS(C)(=O)=O)cc32)cc1 | 28400 ng/mL |
